Test system: Goldblatt two-kidney renal hypertensive rats
test: Test 1: antihypertensive activity, oral, tail-plethysmographic blood pressure in Goldblatt two-kidney renal hypertensive rats
Assay type: in vivo, rat (male STD Wistar strain)
condition-parameters: Rattus norvegicus; oral, 0.1 millimole/kg, at peak time, % of initial blood pressure; read-out: Change in blood pressure, peak time (%)
Source text: The contralateral kidney and its renal artery were left intact. The animals were maintained on commercial rat chow and tap water ad libitum. In each Figure, the ordinate represents the changes in blood pressure (mmHg) and the abscissa, the time (hours) elapsed after oral administration.
property-measured: change in vivo at 100 µmol/kg (%)
Value expressed in %; do not type the unit.

Record excerpt, results attached:
>>> observed("CCC(=O)SC[C@@H](C)C(=O)N1CCC[C@H]1C(=O)N[C@@H](Cc1ccccc1)C(=O)O")
-18
>>> observed("CC(=O)SC[C@@H](C)C(=O)N1CCC[C@H]1C(=O)N[C@@H](Cc1ccccc1)C(=O)O")
-17
>>> observed("CC(C)C(=O)SC[C@@H](C)C(=O)N1CCC[C@H]1C(=O)N[C@@H](Cc1ccccc1)C(=O)O")
-18
>>> observed("CC(=O)SC[C@@H](C)C(=O)N1CCC[C@H]1C(N)=O [Compound 3, reference compound]")
-4
>>> observed("CCOC(=O)[C@H](CCSC)NC(=O)[C@@H]1CCCN1C(=O)[C@H](C)CSC(C)=O")
-15

compound C[C@H](CS)C(=O)N1CCC[C@H]1C(N)=O [Compound 2, reference compound] , change in vivo at 100 µmol/kg observed: -3

compound COC(=O)[C@H](Cc1ccc(O)cc1)NC(=O)[C@@H]1CCCN1C(=O)[C@H](C)CSC(C)=O , change in vivo at 100 µmol/kg observed: -17

compound CCOC(=O)[C@H](Cc1ccc(O)cc1)NC(=O)[C@@H]1CCCN1C(=O)[C@H](C)CSC(C)=O , change in vivo at 100 µmol/kg observed: -17

compound C[C@H](CSC(=O)c1ccccc1)C(=O)N1CCC[C@H]1C(=O)N[C@@H](Cc1ccccc1)C(=O)O , change in vivo at 100 µmol/kg observed: -15

Numbers sourced from patent US4248883A.
